- Test system: Huh7.5 cells
- RUN_PARAMETERS: human, 3 days
Each item that follows carries a reported 2a cell viability (@ 5 μM).
Write it as a number; the unit % goes unstated.

Some entries whose results are on file:
molecule="Clc1ccc(Cn2nc(OCCCN3CCCC3)c3ccccc32)cc1 [EBP288]" unit_of_measurement=% measured_value=89
molecule="O[C@@H]1CCN(CCCOc2nn(Cc3ccc(Cl)cc3)c3ccccc23)C1 [EBP393]" unit_of_measurement=% measured_value=100
molecule="c1ccc2c(c1)c(OCCN1CCCC1)nn2CC1CCCNC1 (stereo not shown) [EBP360]" unit_of_measurement=% measured_value=92

Task: Lab note: need 2a cell viability (@ 5 μM) with Huh7.5 cells for entry CCOC(=O)[C@@H]1CCCN1CCCOc1nn(Cc2ccc(Cl)cc2)c2ccccc12 [EBP512] , please look it up.
Output: 100

Task: // repeat for Clc1ccc(Cn2nc(OCCCN3CCCC3c3ccccc3)c3ccccc32)cc1 (stereo not shown) [EBP387] and report
Output: 100

Task: // repeat for Clc1ccc(Cn2nc(OCCN3CCC[C@H]3CN3CCCC3)c3ccccc32)cc1 [EBP403] and report
Output: 97

Task: // repeat for COc1ccc(Cn2nc(OCCCN3CCCCC3)c3ccccc32)cc1 [EBP328] and report
Output: 100

Task: // repeat for Cc1ccc2c(c1)c(OCCN1CCCCC1)nn2Cc1ccccc1 [EBP176] and report
Output: 98

Task: // repeat for c1ccc2c(c1)c(OCCN1CCCC1)nn2CC1CCCCC1 [EBP339] and report
Output: 100

Task: // repeat for COC(=O)C1CCCCN1CCCOc1nn(Cc2ccc(Cl)cc2)c2ccccc12 (stereo not shown) [EBP505] and report
Output: 94

Task: // repeat for Cc1ccc2c(c1)c(OCCCN(C)C)nn2Cc1ccccc1 [EBP151] and report
Output: 92

Task: // repeat for OC[C@@H]1CCCN1CCCOc1nn(Cc2ccc(Cl)cc2)c2ccccc12 [EBP383] and report
Output: 100

Task: // repeat for c1ccc2c(c1)c(OCCN1CCCC1)nn2Cc1ccncc1 [EBP357] and report
Output: 94

Task: // repeat for COc1ccc(Cn2nc(OCCCN3CCCC3)c3ccccc32)cc1 [EBP327] and report
Output: 98

Task: // repeat for C[C@H](COc1nn(Cc2ccc(Cl)cc2)c2ccccc12)CN1CCC[C@H]1CO [EBP454] and report
Output: 93

Task: // repeat for Cc1ccc2c(c1)c(OCCN1CCCC1)nn2Cc1ccccc1 [EBP181] and report
Output: 100

Task: // repeat for CN(C)CCOc1nn(CCc2ccc(Cl)cc2)c2ccccc12 [EBP332] and report
Output: 100

Task: // repeat for c1ccc(Cn2nc(OCCCN3CCCC3)c3ccccc32)cc1 [EBP177] and report
Output: 100

Task: // repeat for Clc1cccc(Cn2nc(OCCN3CCCC3)c3ccccc32)c1 [EBP334] and report
Output: 100
